Below is a list of entries, each paired with its recorded Ki value.
# targetOrTestSystem: Carbonic anhydrase 2 (Homo sapiens)
# assayComment: Inhibition of human recombinant carbonic anhydrase 2 preincubated for 15 mins by CO2 hydration stopped-flow assay
propertyMeasured: Ki

>>> reportedvalue("CCCNS(=O)(=O)c1ccc(N)cc1")
"3460 nM"
>>> reportedvalue("CC(F)(F)CNS(=O)(=O)c1ccc(N)cc1")
"85.3 nM"
>>> reportedvalue("CC1CN(C)S(=O)(=O)c2ccc(N)cc21 (stereo not drawn)")
"431 nM"
>>> reportedvalue("C=C(C)CNS(=O)(=O)c1ccc(N)cc1")
"4710 nM"
>>> reportedvalue("NS(=O)(=O)c1ccc2c(c1)CCCN2")
"78.9 nM"
>>> reportedvalue("CC(=O)Nc1ccc(S(=O)(=O)NCC(C)F)cc1 (stereo not drawn)")
"4600 nM"
>>> reportedvalue("C=CCNc1ccc(S(N)(=O)=O)cc1")
"2340 nM"
>>> reportedvalue("CC(F)CNc1ccc(S(N)(=O)=O)cc1 (stereo not drawn)")
"57.6 nM"

* * *

# targetOrTestSystem: UniProt:Q16790
# note: exactly 70 nM is not below, so it is 0 (no); use 1 (yes) for Ki strictly under it

>>> categorylabel("NS(=O)(=O)c1ccc2c(c1)CCCN2")
"1 (yes)"
>>> categorylabel("CC(=O)Nc1ccc(S(=O)(=O)NCC(C)F)cc1 (stereo not given)")
"0 (no)"
>>> categorylabel("CCCNS(=O)(=O)c1ccc(N)cc1")
"0 (no)"
>>> categorylabel("CC(F)CNc1ccc(S(N)(=O)=O)cc1 (stereo not given)")
"1 (yes)"
>>> categorylabel("C=C(Cl)CN(CC(=C)Cl)S(=O)(=O)c1ccc(N)cc1")
"0 (no)"

* * *

# targetOrTestSystem: Carbonic anhydrase 2 (Homo sapiens)
# assayComment: Inhibition of human recombinant carbonic anhydrase 2 preincubated for 15 mins by CO2 hydration stopped-flow assay
Collected log10 of Ki values appear next to each entry.
propertyMeasured: log10 of Ki (log10 of the value in µM)

>>> reportedvalue("Cc1ccc(S(=O)(=O)Nc2ccccc2)cc1")
-0.40
>>> reportedvalue("CC(C)(F)CNS(=O)(=O)c1ccc(N)cc1")
-1.12
>>> reportedvalue("C=C(Cl)CN(CC(=C)Cl)S(=O)(=O)c1ccc(N)cc1")
0.70
>>> reportedvalue("Nc1ccc(S(=O)(=O)NCCC(F)F)cc1")
0.63
>>> reportedvalue("Nc1ccc(S(=O)(=O)NCCC(F)Cl)cc1 (configuration not stated)")
-0.10
>>> reportedvalue("C=C(Cl)CNS(=O)(=O)c1ccc(N)cc1")
0.71
>>> reportedvalue("CC(F)(Cl)CNS(=O)(=O)c1ccc(N)cc1 (configuration not stated)")
0.15

* * *

Entries below carry reported Ki on Carbonic anhydrase 12 (Homo sapiens).
Sequence (O43570 whole entry): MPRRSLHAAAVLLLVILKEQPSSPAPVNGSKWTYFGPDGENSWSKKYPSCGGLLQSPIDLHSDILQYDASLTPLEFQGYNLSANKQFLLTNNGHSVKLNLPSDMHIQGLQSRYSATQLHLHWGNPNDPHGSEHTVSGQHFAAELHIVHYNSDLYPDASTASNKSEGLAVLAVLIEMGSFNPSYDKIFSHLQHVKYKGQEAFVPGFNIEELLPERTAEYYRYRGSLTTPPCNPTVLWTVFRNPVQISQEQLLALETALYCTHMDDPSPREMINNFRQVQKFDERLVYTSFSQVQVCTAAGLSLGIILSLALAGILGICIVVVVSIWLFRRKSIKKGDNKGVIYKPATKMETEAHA
propertyMeasured: Ki (nM)

>>> reportedvalue("C=C(Cl)CN(CC(=C)Cl)S(=O)(=O)c1ccc(N)cc1")
79.8
>>> reportedvalue("CC(F)CNc1ccc(S(N)(=O)=O)cc1 (stereo not drawn)")
73.9
>>> reportedvalue("C=C(Cl)CNS(=O)(=O)c1ccc(N)cc1")
96

* * *

# Organism: Homo sapiens
# assayComment: Selectivity ratio of Ki for human carbonic anhydrase 2 to Ki for human carbonic anhydrase 9
# binning rule on Ratio Ki: A (below 1), B (1 to below 2), C (2 or more)

>>> categorylabel("C=CCNc1ccc(S(N)(=O)=O)cc1")
"B"
>>> categorylabel("CC(F)(Cl)CNS(=O)(=O)c1ccc(N)cc1 (stereo not given)")
"A"
>>> categorylabel("CC1CN(C)S(=O)(=O)c2ccc(N)cc21 (stereo not given)")
"C"
>>> categorylabel("C=C(Cl)CN(CC(=C)Cl)S(=O)(=O)c1ccc(N)cc1")
"C"
>>> categorylabel("CC(F)(F)CNS(=O)(=O)c1ccc(N)cc1")
"B"
>>> categorylabel("CC(F)CNc1ccc(S(N)(=O)=O)cc1 (stereo not given)")
"B"
>>> categorylabel("Nc1ccc(S(=O)(=O)NCCC(F)Cl)cc1 (stereo not given)")
"A"
>>> categorylabel("CCCNS(=O)(=O)c1ccc(N)cc1")
"B"
>>> categorylabel("NS(=O)(=O)c1ccc2c(c1)CCCN2")
"B"
>>> categorylabel("NS(=O)(=O)c1ccc(Nc2nc(Cl)nc(NCCO)n2)cc1")
"C"
>>> categorylabel("C=C(C)CNS(=O)(=O)c1ccc(N)cc1")
"B"
>>> categorylabel("C=C(Cl)CNS(=O)(=O)c1ccc(N)cc1")
"C"
>>> categorylabel("CC(C)(F)CNS(=O)(=O)c1ccc(N)cc1")
"A"
